Parameter: pIC50. Scope: all listed entries.
molecular target: Neuronal acetylcholine receptor; alpha4/beta2 (Rattus norvegicus, UniProt P09483+P12390); test: Inhibition of [3H](-)-nicotine binding to recombinant rat alpha4-beta2 nAChR was determined; experiment 1; type: protein-complex assay
Sequence (P09483 whole entry): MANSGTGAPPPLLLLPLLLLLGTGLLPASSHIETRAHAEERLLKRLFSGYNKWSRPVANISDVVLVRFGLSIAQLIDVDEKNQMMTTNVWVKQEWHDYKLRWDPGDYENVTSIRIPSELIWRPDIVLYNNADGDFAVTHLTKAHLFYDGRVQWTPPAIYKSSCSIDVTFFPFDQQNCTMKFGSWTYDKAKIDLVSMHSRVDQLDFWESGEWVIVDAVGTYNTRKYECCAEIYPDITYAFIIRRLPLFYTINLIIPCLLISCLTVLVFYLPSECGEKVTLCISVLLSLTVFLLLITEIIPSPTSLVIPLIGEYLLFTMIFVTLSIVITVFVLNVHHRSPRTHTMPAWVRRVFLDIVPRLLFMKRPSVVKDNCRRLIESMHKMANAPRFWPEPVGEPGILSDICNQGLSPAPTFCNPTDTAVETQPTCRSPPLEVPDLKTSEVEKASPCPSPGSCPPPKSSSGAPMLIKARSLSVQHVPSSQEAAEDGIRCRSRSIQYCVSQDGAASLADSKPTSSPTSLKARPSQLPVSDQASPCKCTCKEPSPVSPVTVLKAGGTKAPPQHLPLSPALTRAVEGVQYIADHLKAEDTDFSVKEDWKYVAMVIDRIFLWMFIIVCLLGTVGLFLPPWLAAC
Sequence (P12390 whole entry): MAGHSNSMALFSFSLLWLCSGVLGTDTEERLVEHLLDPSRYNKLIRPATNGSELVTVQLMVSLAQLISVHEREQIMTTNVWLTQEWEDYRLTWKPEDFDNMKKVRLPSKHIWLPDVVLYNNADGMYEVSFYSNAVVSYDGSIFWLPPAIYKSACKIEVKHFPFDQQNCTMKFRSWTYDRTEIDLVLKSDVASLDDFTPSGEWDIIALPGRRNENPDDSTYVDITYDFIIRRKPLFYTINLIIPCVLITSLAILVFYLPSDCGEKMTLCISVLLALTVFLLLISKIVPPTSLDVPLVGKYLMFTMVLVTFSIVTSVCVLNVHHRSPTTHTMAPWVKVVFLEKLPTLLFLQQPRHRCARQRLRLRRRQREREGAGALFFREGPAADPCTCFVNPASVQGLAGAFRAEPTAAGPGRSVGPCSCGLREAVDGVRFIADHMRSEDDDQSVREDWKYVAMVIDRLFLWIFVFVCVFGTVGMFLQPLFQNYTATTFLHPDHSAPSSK
pIC50: −log10 of the molar value.
metric-name: pIC50

[[record]]
compound = "NC1=NCCO1"
study_system = "Neuronal acetylcholine receptor; alpha4/beta2 (Rattus norvegicus, UniProt P09483+P12390)"
metric_name = "pIC50"
result_value = 4.00

[[record]]
compound = "SC1=NCCN1Cc1ccc(Cl)nc1"
study_system = "Neuronal acetylcholine receptor; alpha4/beta2 (Rattus norvegicus, UniProt P09483+P12390)"
metric_name = "pIC50"
result_value = 4.90

[[record]]
compound = "Clc1ccc(CN2CCN(Cc3ccc(Cl)nc3)CC2)cn1"
study_system = "Neuronal acetylcholine receptor; alpha4/beta2 (Rattus norvegicus, UniProt P09483+P12390)"
metric_name = "pIC50"
result_value = 5.76

